Form field: Change (one value per entry).
Tested on: Mus musculus
method: Percentage change in plasma glucose after 4 days of treatment in db/db mouse at 1 mg/kg (po) in a postprandial assay
Format: functional

Answered examples (5):
compound: O=S1NC(Cc2ccc3cc(Br)ccc3c2)=NO1 (configuration not stated)
result.value: <-15%
--
compound: C#Cc1cccc2cc(CC3=NOS(=O)N3)ccc12 (configuration not stated)
result.value: -19%
--
compound: O=S1NC(Cc2ccc3cccc(Cl)c3c2)=NO1 (configuration not stated)
result.value: <-15%
--
compound: Cc1cccc2cc(CC3=NOS(=O)N3)ccc12 (configuration not stated)
result.value: <-15%
--
compound: COc1c(CC2=NOS(=O)N2)cc(Cl)c2ccccc12 (configuration not stated)
result.value: -17%

Data request: Fill in the recorded Change for this compound, with Mus musculus as test system: COc1c(CC2=NOS(=O)N2)ccc2ccccc12 (configuration not stated)
Data returned: <-15%

Data request: State its Change on Mus musculus: O=S1NC(Cc2cc3ccccc3cc2C(F)(F)F)=NO1 (configuration not stated)
Data returned: <-15%
